Cited source for all entries: the PolyMetriX glass transition set

Below, each of the molecules is paired with its reported glass transition temperature value.

| Molecule | Output Unit | glass transition temperature |
| --- | --- | --- |
| *C(=O)NC1CCC(CC2CCC(NC(=O)c3ccc(N4C(=O)c5ccc(*)cc5C4=O)cc3)CC2)CC1 (repeat unit) | °C | 275.00 |
| *CCC(=O)NCc1c(C)c(C)c(CNC(=O)CCO*)c(C)c1C (repeat unit) | °C | 191.00 |
| *CC(CSCCC)O* (repeat unit) | °C | -61.00 |
| *Oc1c(-c2ccccc2)cc(*)cc1-c1cccc2ccccc12 (repeat unit) | °C | 234.00 |
| *c1ccc(C(c2ccccc2)c2ccc(N3C(=O)c4ccc(Oc5ccc6c(c5)C(=O)N(*)C6=O)cc4C3=O)cc2)cc1 (repeat unit) | °C | 269.00 |
| *CCOCCOCCOCCOCCOCCOC(=O)NCCCCCCNC(=O)O* (repeat unit) | °C | -31.00 |
| *CC(*)(C)C(=O)OCC1CCCO1 (repeat unit) | °C | 105.00 |
| *c1ccc(Oc2ccc(C(c3ccc(Oc4ccc(-c5nnc(*)n5-c5ccc(S(=O)(=O)c6ccccc6)cc5)cc4)cc3)(C(F)(F)F)C(F)(F)F)cc2)cc1 (repeat unit) | °C | 211.00 |
| *Oc1ccc(C2(c3ccc(Oc4ccc(C(=O)c5cccc(C(=O)c6ccc(*)cc6)c5)cc4)c(C)c3)CCC3CCCCC3C2)cc1C (repeat unit) | °C | 185.00 |
| *Oc1ccc(C(=O)c2cccc(NC(=O)c3cccc(C(=O)Nc4cccc(C(=O)c5ccc(*)cc5)c4)c3)c2)cc1 (repeat unit) | °C | 191.00 |
| *c1ccc(Cc2ccc(N3C(=O)c4ccc(-c5ccc6c(c5)C(=O)N(*)C6=O)cc4C3=O)c(C(C)(C)C)c2)cc1C(C)(C)C (repeat unit) | °C | 324.00 |
| *CCCCCC(=O)Nc1ccc(Oc2ccc(NC(=O)CCCCCN3C(=O)c4ccc(C(=O)c5ccc6c(c5)C(=O)N(*)C6=O)cc4C3=O)cc2)cc1 (repeat unit) | °C | 195.00 |
| *Oc1ccc(/C(=C/c2ccc(-c3ccc(/C=C(\c4ccccc4)c4ccc(OC(=O)c5cccc(C(*)=O)c5)cc4)cc3)cc2)c2ccccc2)cc1 (repeat unit) | °C | 224.00 |
| *c1ccc(Oc2ccc(-n3c(=O)c4cc5c(=O)n(-c6ncc(*)s6)c(=O)c5cc4c3=O)cc2)cc1 (repeat unit) | °C | 328.80 |
| *CC(*)(C)C(=O)OCC(=O)c1ccccc1 (repeat unit) | °C | 92.50 |

====

| Compound | glass transition temperature [°C] |
| --- | --- |
| *CCCCCCCCCOC(=O)NCCCCCCNC(=O)O* (repeat unit) | 58.00 |
| *c1ccc(OC(=O)CCCCCCCCCCCCCCCCCCCCC(=O)Oc2ccc(N3C(=O)c4ccc(-c5ccc6c(c5)C(=O)N(*)C6=O)cc4C3=O)cc2)cc1 (repeat unit) | 140.00 |
| *C(*)O (repeat unit) | 134.00 |
| */C=C/C1CC(*)C2C(=O)N(CCCCCCCCCCCC)C(=O)C12 (repeat unit) | 50.00 |
| *C(=O)Oc1ccc(OC(=O)c2ccc3c(c2)C(=O)N(C2CCC(N4C(=O)c5ccc(*)cc5C4=O)CC2)C3=O)cc1 (repeat unit) | 360.00 |
| *Oc1ccc(CC(NC(=O)CCc2ccc(OC(=O)COCC(*)=O)cc2)C(=O)OC(C)CC)cc1 (repeat unit) | 68.00 |
| *c1ccc(-c2nc3cc(C(=O)c4ccc5nc(-c6ccccc6)c(-c6ccc(N7C(=O)C8OC9C(=O)N(*)C(=O)C9C8C7=O)cc6)nc5c4)ccc3nc2-c2ccccc2)cc1 (repeat unit) | 255.00 |
| *c1ccc(-c2cnc3cc(-c4ccc5nc(*)cnc5c4)ccc3n2)cc1 (repeat unit) | 350.00 |
| *c1cc(CCCCCCCCCCCC)c(*)s1 (repeat unit) | -24.2 |
| *OC(=O)Oc1ccc(C(C)(C)c2ccc(OC(=O)OC3CC4CC(*)CC(C3)O4)cc2)cc1 (repeat unit) | 194.00 |
| *O[Si](Oc1ccc(C2(c3ccc(*)c(C)c3)c3ccccc3-c3ccccc32)cc1C)(c1ccccc1)c1ccccc1 (repeat unit) | 171.00 |
| *C1C(=O)N(c2ccc(O[Si](C)(C)C)cc2)C(=O)C1* (repeat unit) | 172.00 |
| *CCCC(C)CN1C(=O)c2ccc(C(=O)Oc3ccc(-c4ccc(OC(=O)c5ccc6c(c5)C(=O)N(*)C6=O)cc4)cc3)cc2C1=O (repeat unit) | 155.00 |
| *C(=O)OCCOCCOC(=O)c1ccc(N2C(=O)c3ccc(*)cc3C2=O)cc1 (repeat unit) | 101.00 |
| *CCOCCOCCOCCOCCOCCOC(=O)c1cccc(C(=O)O*)c1 (repeat unit) | -23.50 |
| *c1cccc(N2C(=O)c3ccc(Oc4ccc(S(=O)(=O)c5ccc(Oc6ccc7c(c6)C(=O)N(*)C7=O)cc5)cc4)cc3C2=O)c1 (repeat unit) | 265.00 |
